Assay: Selectivity index, ratio of IC50 for human WI38 cells to IC50 for chloroquine-sensitive Plasmodium falciparum 3D7
Format: toxicity, cell-based, WI-38
Settings: read-out: Ratio IC50
Below: a set of entries, each annotated with reported selectivity ratio.
MEASUREMENT_TYPE: selectivity ratio

| MOLECULE | MEASURED |
| --- | --- |
| COc1ccc(C(=O)/C=C/c2ccc(C(=O)OC3O[C@@H]4O[C@]5(C)CC[C@H]6[C@H](C)CC[C@@H]([C@H]3C)[C@@]46OO5)cc2)cc1[N+](=O)[O-] (some centres not stated) | > 17000 |
| COc1ccc(C(=O)/C=C/c2ccc(C(=O)O)cc2)cc1[N+](=O)[O-] | 0.7 |
| COc1ccc(C(=O)/C=C/c2ccc(C(=O)OC3O[C@@H]4O[C@]5(C)CC[C@H]6[C@H](C)CC[C@@H]([C@H]3C)[C@@]46OO5)cc2)cc1OC (some centres not stated) | > 29800 |
| Cc1ccc(C(=O)/C=C/c2ccc(C(=O)O[C@@H]3O[C@@H]4O[C@]5(C)CC[C@H]6[C@H](C)CC[C@@H]([C@H]3C)[C@@]46OO5)cc2)o1 | 36500 |
| C[C@@H]1CC[C@H]2[C@@H](C)C(OC(=O)c3ccc(/C=C/C(=O)c4ccccc4)cc3)O[C@@H]3O[C@]4(C)CC[C@@H]1[C@]32OO4 (some centres not stated) | > 10300 |
| O=C(O)c1ccc(/C=C/C(=O)c2ccccc2)cc1 | > 3.4 |
| O=C(O)c1ccc(/C=C/C(=O)c2ccc(Cl)c(Cl)c2Cl)cc1 | 0.5 |
| C[C@H]1[C@@H](OC(=O)c2ccc(/C=C/C(=O)c3ccc(Cl)c(Cl)c3Cl)cc2)O[C@@H]2O[C@]3(C)CC[C@H]4[C@H](C)CC[C@@H]1[C@@]24OO3 | 5800 |
| COc1ccc(C(=O)/C=C/c2ccc(C(=O)OC3O[C@@H]4O[C@]5(C)CC[C@H]6[C@H](C)CC[C@@H]([C@H]3C)[C@@]46OO5)cc2)c(OC)c1 (some centres not stated) | > 33100 |
| Cc1ccc(C(=O)/C=C/c2ccc(C(=O)O)cc2)o1 | 1.7 |
| COc1ccc(C(=O)/C=C/c2ccc(C(=O)O)cc2)cc1OC | 6.2 |
| COc1ccc(C(=O)/C=C/c2ccc(C(=O)O)cc2)c(OC)c1 | 3.3 |

----------
Assay: Cytotoxicity against human WI38 cells assessed as inhibition of proliferation after 24 hrs by SRB assay
Type: cell-based
Conditions: WI-38, 24 h
Classify by IC50. Ranges: group A (below 20 µM), group B (20 µM to below 60 µM), group C (60 µM or more)

| COMPOUND | CLASS_ASSIGNMENT |
| --- | --- |
| C[C@H]1[C@@H](OC(=O)c2ccc(/C=C/C(=O)c3ccc(Cl)c(Cl)c3Cl)cc2)O[C@@H]2O[C@]3(C)CC[C@H]4[C@H](C)CC[C@@H]1[C@@]24OO3 | group C |
| O=C(O)c1ccc(/C=C/C(=O)c2ccccc2)cc1 | group C |
| COc1ccc(C(=O)/C=C/c2ccc(C(=O)O)cc2)cc1OC | group C |
| C[C@@H]1CC[C@H]2[C@@H](C)C(OC(=O)c3ccc(/C=C/C(=O)c4ccccc4)cc3)O[C@@H]3O[C@]4(C)CC[C@@H]1[C@]32OO4 (some centres undefined) | group C |
| CC[C@H]1CN2CCc3cc(OC)c(OC)cc3[C@@H]2C[C@@H]1C[C@H]1NCCc2cc(OC)c(OC)cc21 [EMETINE] | group A |
| Cc1ccc(C(=O)/C=C/c2ccc(C(=O)O)cc2)o1 | group B |
| COc1ccc(C(=O)/C=C/c2ccc(C(=O)O)cc2)c(OC)c1 | group B |
| COc1ccc(C(=O)/C=C/c2ccc(C(=O)O)cc2)cc1[N+](=O)[O-] | group B |
| COc1ccc(C(=O)/C=C/c2ccc(C(=O)OC3O[C@@H]4O[C@]5(C)CC[C@H]6[C@H](C)CC[C@@H]([C@H]3C)[C@@]46OO5)cc2)c(OC)c1 (some centres undefined) | group C |
| Cc1ccc(C(=O)/C=C/c2ccc(C(=O)O[C@@H]3O[C@@H]4O[C@]5(C)CC[C@H]6[C@H](C)CC[C@@H]([C@H]3C)[C@@]46OO5)cc2)o1 | group C |
| CCN(CC)CCCC(C)Nc1ccnc2cc(Cl)ccc12 (centres undefined) [CHLOROQUINE] | group A |
| COc1ccc(C(=O)/C=C/c2ccc(C(=O)OC3O[C@@H]4O[C@]5(C)CC[C@H]6[C@H](C)CC[C@@H]([C@H]3C)[C@@]46OO5)cc2)cc1OC (some centres undefined) | group C |
| COc1ccc(C(=O)/C=C/c2ccc(C(=O)OC3O[C@@H]4O[C@]5(C)CC[C@H]6[C@H](C)CC[C@@H]([C@H]3C)[C@@]46OO5)cc2)cc1[N+](=O)[O-] (some centres undefined) | group C |

----------
Test system: Plasmodium falciparum
Test: Antimalarial activity against chloroquine-resistant Plasmodium falciparum W2 assessed as inhibition of parasite proliferation after 96 hrs by SYBR Green I-based fluorescence method
Format: functional, organism-based
Details: W2, 96 h
pIC50: −log10 of the molar value.

| COMPOUND | pIC50 |
| --- | --- |
| COc1ccc(C(=O)/C=C/c2ccc(C(=O)OC3O[C@@H]4O[C@]5(C)CC[C@H]6[C@H](C)CC[C@@H]([C@H]3C)[C@@]46OO5)cc2)cc1OC (some centres not stated) | 8.84 |
| COc1ccc(C(=O)/C=C/c2ccc(C(=O)OC3O[C@@H]4O[C@]5(C)CC[C@H]6[C@H](C)CC[C@@H]([C@H]3C)[C@@]46OO5)cc2)cc1[N+](=O)[O-] (some centres not stated) | 8.25 |
| O=C(O)c1ccc(/C=C/C(=O)c2ccccc2)cc1 | 7.51 |
| Cc1ccc(C(=O)/C=C/c2ccc(C(=O)O[C@@H]3O[C@@H]4O[C@]5(C)CC[C@H]6[C@H](C)CC[C@@H]([C@H]3C)[C@@]46OO5)cc2)o1 | 8.83 |
| C[C@H]1[C@@H](O)O[C@@H]2O[C@@]3(C)CC[C@H]4[C@H](C)CC[C@@H]1[C@@]24OO3 [ARTENIMOL] | 8.88 |
| C[C@@H]1CC[C@H]2[C@@H](C)C(OC(=O)c3ccc(/C=C/C(=O)c4ccccc4)cc3)O[C@@H]3O[C@]4(C)CC[C@@H]1[C@]32OO4 (some centres not stated) | 7.98 |
| Cc1ccc(C(=O)/C=C/c2ccc(C(=O)O)cc2)o1 | 7.76 |

----------
Tested on: WI-38
Assay: Selectivity index, ratio of IC50 for human WI38 cells to IC50 for human TK10 cells
Format: functional
MEASUREMENT_TYPE: Ratio IC50

| COMPOUND | MEASUREMENT_TYPE | MEASURED |
| --- | --- | --- |
| COc1ccc(C(=O)/C=C/c2ccc(C(=O)OC3O[C@@H]4O[C@]5(C)CC[C@H]6[C@H](C)CC[C@@H]([C@H]3C)[C@@]46OO5)cc2)cc1[N+](=O)[O-] (some centres not stated) | Ratio IC50 | >6 |
| O=C(O)c1ccc(/C=C/C(=O)c2ccc(Cl)c(Cl)c2Cl)cc1 | Ratio IC50 | 0.9 |
| COc1ccc(C(=O)/C=C/c2ccc(C(=O)O)cc2)c(OC)c1 | Ratio IC50 | 0.8 |
| C[C@@H]1CC[C@H]2[C@@H](C)C(OC(=O)c3ccc(/C=C/C(=O)c4ccccc4)cc3)O[C@@H]3O[C@]4(C)CC[C@@H]1[C@]32OO4 (some centres not stated) | Ratio IC50 | >12 |
| COc1ccc(C(=O)/C=C/c2ccc(C(=O)OC3O[C@@H]4O[C@]5(C)CC[C@H]6[C@H](C)CC[C@@H]([C@H]3C)[C@@]46OO5)cc2)c(OC)c1 (some centres not stated) | Ratio IC50 | >5 |
| C[C@H]1[C@@H](OC(=O)c2ccc(/C=C/C(=O)c3ccc(Cl)c(Cl)c3Cl)cc2)O[C@@H]2O[C@]3(C)CC[C@H]4[C@H](C)CC[C@@H]1[C@@]24OO3 | Ratio IC50 | 1.2 |
| O=C(O)c1ccc(/C=C/C(=O)c2ccccc2)cc1 | Ratio IC50 | >3 |
| COc1ccc(C(=O)/C=C/c2ccc(C(=O)O)cc2)cc1OC | Ratio IC50 | 3.6 |
| Cc1ccc(C(=O)/C=C/c2ccc(C(=O)O[C@@H]3O[C@@H]4O[C@]5(C)CC[C@H]6[C@H](C)CC[C@@H]([C@H]3C)[C@@]46OO5)cc2)o1 | Ratio IC50 | 20 |
| COc1ccc(C(=O)/C=C/c2ccc(C(=O)OC3O[C@@H]4O[C@]5(C)CC[C@H]6[C@H](C)CC[C@@H]([C@H]3C)[C@@]46OO5)cc2)cc1OC (some centres not stated) | Ratio IC50 | >17 |
| COc1ccc(C(=O)/C=C/c2ccc(C(=O)O)cc2)cc1[N+](=O)[O-] | Ratio IC50 | 1.4 |
| Cc1ccc(C(=O)/C=C/c2ccc(C(=O)O)cc2)o1 | Ratio IC50 | 0.4 |

Reference for the values: ChEMBL document CHEMBL3396954
